B1: H2-Kb / B3 (parent)
chain 1: GQQVKQSSPSLTVQEGGISILNCDYENDMFDYFAWYKKYPDNSPTLLISVRSNVDKREDGRLTVFLNKSGKHFSLHITASQPEDTAVYLCAAGNTGYQNFYFGKGTSLTVIP
chain 2: DSGVVQSPRHIIKEKGGRSVLTCIPISGHSNVVWYQQTLGKELKFLIQHYEKVERDKGFLPSRFSVQQFDDYHSEMNMSALELEDSAMYFCASSSLQGARNQAPLFGEGTRLSVL
chain 3: not shown
chain 4: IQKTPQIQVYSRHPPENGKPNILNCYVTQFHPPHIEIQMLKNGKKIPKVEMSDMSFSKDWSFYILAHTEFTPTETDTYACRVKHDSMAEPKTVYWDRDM
chain 5: SIINFEKL

# Variants of: B1
# PROTOCOL_DESCRIPTION: % of reporter cells activated (NFAT-GFP), raw; also: test concentration or dose not given here
# COND: with B3; scale: % of reporter cells activated
PARAMETER_MEASURED: ratio to parent

Field: example entries. Status: answers known.
MUTATION_ANNOTATION	READOUT_VALUE
chain 5 S1I	0.207
chain 5 F5Y	0.918
chain 5 S1A	0.221
chain 5 I2W	0.631

[I] chain 5 F5N
[II] chain 5 F5A
[III] chain 5 K7A
Rank order required: ratio to parent, descending. Please reply with the labels ordered as requested. Many thanks.
II, I, III
(II: 0.437, I: 0.305, III: 0.18)

[a] chain 5 S1V
[b] chain 5 S1M
[c] chain 5 L8C
Sort ascending by ratio to parent. Please reply with the labels ordered as requested. Many thanks.
b, a, c
